- PROTOCOL DESCRIPTION: Human hepatocyte in vitro liver metabolism assay (HHep)
- Format: in vitro ADME
- TEST CONTEXT: cryopreserved human hepatocytes, 0.5 million viable cells per mL, 37° C.
Items are presented alongside their recorded HHep CLint.
Give the value, in units of μL/min/mil, as a plain number.

# annotated cases, reported HHep CLint shown
[[record]]
structure_smiles_string = "CCOC(=O)O[C@@H](C)n1nnnc1-c1c(-c2ccc(C(=O)N(c3ncccc3C)[C@@H]3CCCNC3)cc2)cnn1C"
observed = 57.2

[[record]]
structure_smiles_string = "CCOC(=O)O[C@H](C)n1nnnc1-c1c(-c2ccc(C(=O)N(c3ncccc3C)[C@@H]3CCCNC3)cc2)cnn1C"
observed = 85.0

[[record]]
structure_smiles_string = "CCOC(=O)O[C@@H](C)n1nnnc1-c1c(-c2ccc(C(=O)N(c3ncccc3Cl)[C@@H]3CCCNC3)cc2)cnn1C"
observed = 71.2

[[record]]
structure_smiles_string = "CCOC(=O)O[C@@H](C)n1nnnc1-c1c(-c2ccc(C(=O)N(c3ncccc3Cl)[C@@H]3CCCNC3)nc2)cnn1C"
observed = 11.8


In: Using the record for CCOC(=O)O[C@@H](C)n1nnnc1-c1c(-c2ccc(C(=O)N(c3ncccc3C)[C@@H]3CCCNC3)nc2)cnn1C , state its measured HHep CLint.
Out: 7.0

In: Answer with the recorded HHep CLint of CCOC(=O)O[C@@H](C)n1nnnc1-c1c(-c2ccc(C(=O)N(c3ncccc3C)[C@@H]3CCCNC3)cc2F)cnn1C only.
Out: 51.3

In: Read off the recorded HHep CLint for CCOC(=O)O[C@@H](C)n1nnnc1-c1c(-c2ccc(C(=O)N(c3ncccc3Cl)[C@@H]3CCCNC3)cc2F)cnn1C
Out: 97.6

====

- System: human PCSK9
- PROTOCOL DESCRIPTION: Cell Free PCSK9 Assay (PCSK9-luciferase mRNA translation in HeLa lysate)
- Assay type: biochemical
- TEST CONTEXT: PCSK9-luciferase RNA, 30° C. for 45 minutes, top concentration 100 μM
METRIC NAME: pIC50
Reminder that pIC50 means the negative base-10 logarithm of the concentration expressed in mol/L.

Solved cases (3 shown):
[[record]]
structure_smiles_string = "Cn1ncc(-c2ccc(C(=O)N(c3ncccc3Cl)[C@@H]3CCCNC3)nc2)c1-c1nn[nH]n1"
observed = 4.98

[[record]]
structure_smiles_string = "CCOC(=O)O[C@@H](C)n1nnnc1-c1c(-c2ccc(C(=O)N(c3ncccc3C)[C@@H]3CCCNC3)cc2F)cnn1C"
observed = 4.96

[[record]]
structure_smiles_string = "CCOC(=O)O[C@@H](C)n1nnnc1-c1c(-c2ccc(C(=O)N(c3ncccc3C)[C@@H]3CCCNC3)nc2)cnn1C"
observed = 4.23


In: Please list pIC50 recorded for the compound CCOC(=O)O[C@@H](C)n1nnnc1-c1c(-c2ccc(C(=O)N(c3ncccc3Cl)[C@@H]3CCCNC3)cc2)cnn1C
Out: 4.99

In: # return recorded pIC50 for entry Cn1ncc(-c2ccc(C(=O)N(c3ncccc3Cl)[C@@H]3CCCNC3)cc2F)c1-c1nn[nH]n1
Out: 5.55

In: Output measured pIC50 for this item: Cc1cccnc1N(C(=O)c1ccc(-c2cnn(C)c2-c2nn[nH]n2)c(F)c1)[C@@H]1CCCNC1
Out: 4.82
